Target: hTRPV3 (Homo sapiens, UniProt Q8NET8)
Construct: The commercially available plasmid with the full-length cDNA of hTRPV3 (791 aa) (NM_001258205.2)
Sequence (Q8NET8 1-791 isoform Q8NET8-2): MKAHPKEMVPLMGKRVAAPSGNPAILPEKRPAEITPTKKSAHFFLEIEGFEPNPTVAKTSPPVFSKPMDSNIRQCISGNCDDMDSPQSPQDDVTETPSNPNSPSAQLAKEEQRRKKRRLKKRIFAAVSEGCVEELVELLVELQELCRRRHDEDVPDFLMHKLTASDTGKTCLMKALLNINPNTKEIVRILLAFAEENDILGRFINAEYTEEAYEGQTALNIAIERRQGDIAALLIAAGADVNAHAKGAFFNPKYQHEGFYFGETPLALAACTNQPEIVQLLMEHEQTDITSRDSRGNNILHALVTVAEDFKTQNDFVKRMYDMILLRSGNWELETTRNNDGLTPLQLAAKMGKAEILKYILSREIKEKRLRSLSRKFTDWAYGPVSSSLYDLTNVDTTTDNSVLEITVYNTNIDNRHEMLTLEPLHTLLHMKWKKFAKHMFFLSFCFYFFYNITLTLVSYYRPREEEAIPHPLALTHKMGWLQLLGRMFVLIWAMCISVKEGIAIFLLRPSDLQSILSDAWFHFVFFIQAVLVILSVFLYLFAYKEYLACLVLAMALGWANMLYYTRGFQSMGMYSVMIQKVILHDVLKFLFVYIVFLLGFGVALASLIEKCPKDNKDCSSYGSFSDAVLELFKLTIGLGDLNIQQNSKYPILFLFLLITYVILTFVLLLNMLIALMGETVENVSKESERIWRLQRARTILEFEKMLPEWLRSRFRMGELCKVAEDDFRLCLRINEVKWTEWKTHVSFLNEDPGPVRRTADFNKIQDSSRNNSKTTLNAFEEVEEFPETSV
Experiment: Whole-cell patch-clamp recording of hTRPV3 current in transfected HEK293T cells (2-APB induced)
Conditions: current induced by 300 μM 2-APB, compounds tested up to 10 μM, room temperature
Experimental readout: IC50

COc1ncnc(OC)c1C(=O)Nc1nc2c(s1)CCc1ccc(Cl)cc1-2 [compound 3] | 1000 to 10000 nM
CCC1(CC)Oc2cnccc2-c2nc(NC(=O)c3c(OC)ncnc3OC)sc21 [compound 107] | 1000 to 10000 nM
COc1ncnc(OC)c1C(=O)Nc1nc2c(s1)C1(CN(C(C)C)C1)Oc1cc(C(C)C)ccc1-2 [compound 145] | 100 to 1000 nM
COc1ncnc(OC)c1C(=O)Nc1nc2c(s1)CCCc1ccccc1-2 [compound 4] | ≥ 10000 nM
COc1ncnc(OC)c1C(=O)Nc1nc2c(s1)COc1c-2cccc1C(F)(F)F [compound 15] | ≥ 10000 nM
CCC1CCC2(CC1)Oc1cc(C(F)(F)F)ccc1-c1nc(NC(=O)c3c(OC)ncnc3OC)sc12 (stereo not drawn) [compound 31] | 100 to 1000 nM
CCC1(CC)Oc2cc(C)ccc2-c2nc(NC(=O)c3c(OC)ncnc3OC)sc21 [compound 124] | 100 to 1000 nM
CCC1(CC)Oc2cc(C(F)(F)F)ccc2-c2nc(NC(=O)c3nccnc3OC)sc21 [compound 96] | 1000 to 10000 nM
COc1ncnc(OC)c1C(=O)Nc1nc2c(s1)C1(CN(C(C)C)C1)Oc1cc(Br)ccc1-2 [compound 146] | < 100 nM
C=CCCOc1ncnc(OC)c1C(=O)Nc1nc2c(s1)C1(CCCCC1)Oc1cc(C(F)(F)F)ccc1-2 [compound 43] | 100 to 1000 nM

Input line: Report IC50 for COc1ncnc(OC)c1C(=O)Nc1nc2c(s1)C1(CCN(C(=O)C3CC3)CC1)Oc1cc(C(F)(F)F)ccc1-2 [compound 69] please.
Output line: 100 to 1000 nM

Input line: So what's the measured IC50 for this one? COc1ncnc(OC)c1C(=O)Nc1nc2c(s1)C(C)(C)N(C)c1cc(C(F)(F)F)ccc1-2 [compound 87]
Output line: 100 to 1000 nM

Input line: Find the recorded IC50 belonging to COc1ncnc(OC)c1C(=O)Nc1nc2c(s1)COc1cccc(C(F)(F)F)c1-2 [compound 99] and report it.
Output line: ≥ 10000 nM

Input line: Could you share which IC50 value was measured for COc1ncnc(OC)c1C(=O)Nc1nc2c(s1)Cc1ccc(Cl)cc1-2 [compound 7] ?
Output line: 1000 to 10000 nM

Input line: What does the record list as IC50 for COc1ncnc(OC)c1C(=O)Nc1nc2c(s1)C1(CCCCCC1)Oc1cc(C(F)(F)F)ccc1-2 [compound 26] ?
Output line: 100 to 1000 nM

Input line: What value of IC50 has been recorded for this entry: COc1ncnc(O)c1C(=O)Nc1nc2c(s1)C1(COC1)Oc1cc(C(C)C)ccc1-2 [compound 144]
Output line: ≥ 10000 nM

Input line: // lookup IC50 for CCC1(CC)Oc2cc(C(F)(F)F)ccc2-c2nc(NC(=O)c3c(Cl)ncnc3Cl)sc21 [compound 111]
Output line: 1000 to 10000 nM
